The reported numbers originate from the supplement of paper PMC5579334.

test system: HSC2 (primary human Schwann cells); test: % inhibition of CellTiter-Glo viability at highest tested concentration (72 h), relative to DMSO and benzethonium chloride controls; higher = more inhibition
molecules and their reported % inhibition
Provide only the numeric value, understood in %.

Previously resolved entries follow.
molecule: NC(=O)c1cccc2cn(-c3ccc(C4CCCNC4)cc3)nc12 (configuration not stated) [MK-4827] (max concentration tested 10000 nM)
% inhibition, %: 23.4
//
molecule: CC1=C2C[C@H]3[C@@H](CC=C4C[C@@H](O)CC[C@@]43C)[C@@H]2CC[C@]12O[C@@H]1C[C@H](C)CN[C@H]1[C@H]2C [Cyclopamine] (max concentration tested 10000 nM)
% inhibition, %: 7.88
//
molecule: CCN(CC)CCCC(C)Nc1ccnc2cc(Cl)ccc12 (configuration not stated) [Chloroquine aq] (max concentration tested 100000 nM)
% inhibition, %: 94.5
//
molecule: Cc1sc2c(c1C)C(c1ccc(Cl)cc1)=N[C@H](CC(=O)OC(C)(C)C)c1nnc(C)n1-2 [(-)JQ1] (max concentration tested 10000 nM)
% inhibition, %: 15.6
//
molecule: Nc1ncnc2c1nc(N)n2[C@@H]1O[C@H](CO)[C@@H](O)[C@H]1O [8-amino-adenosine] (max concentration tested 50000 nM)
% inhibition, %: 96.7

[Q] Please give measured % inhibition of the following entry: O=C(/C=C/c1cccc(S(=O)(=O)Nc2ccccc2)c1)NO [Belinostat] (max concentration tested 10000 nM)
[A] 101

[Q] Output measured % inhibition for this item: C=C1C[C@@H]2[C@H](CC[C@]3(C)C(=O)CC[C@@H]23)[C@@]2(C)C=CC(=O)C=C12 [Exemestane] (max concentration tested 10000 nM)
[A] 6.18

[Q] # return recorded % inhibition for entry Clc1ccc(C(c2ccccc2Cl)C(Cl)Cl)cc1 (configuration not stated) [Mitotane] (max concentration tested 10000 nM)
[A] 1.58

[Q] For C=CCn1c(=O)c2cnc(Nc3ccc(N4CCN(C)CC4)cc3)nc2n1-c1cccc(C(C)(C)O)n1 [MK1775] (max concentration tested 10000 nM) , write its % inhibition.
[A] 85.9

[Q] Quick one: give measured % inhibition for CCNC(=O)CCC/C=C\C[C@@H]1[C@@H](/C=C/[C@@H](O)CCc2ccccc2)[C@H](O)C[C@@H]1O [Bimatoprost] (max concentration tested 5500 nM)
[A] 9.6

[Q] Look up and report measured % inhibition for this entry: CN(C)CCOc1ccc(/C(=C(/CCCl)c2ccccc2)c2ccccc2)cc1 [Toremifene] (max concentration tested 10000 nM)
[A] 55.6

[Q] # return recorded % inhibition for input O=C(c1ccc(OCCN2CCCCC2)cc1)c1c(-c2ccc(O)cc2)sc2cc(O)ccc12 [Raloxifene] (max concentration tested 10000 nM)
[A] 41.8

---

tested on: STS26T; assay: relative IC50 (inflection point of fitted dose-response curve, CellTox-Green cytotoxicity, 72 h; top asymptote may be below 50%); higher = less potent
quantity_name: relative IC50

Sample answers from the record:
compound: O=C(CCCCCCC(=O)Nc1ccccc1)NO [Vorinostat]
quantity_name: relative IC50
test_value: 2.57 µM
--
compound: Cc1c2oc3c(C)ccc(C(=O)N[C@@H]4C(=O)N[C@H](C(C)C)C(=O)N5CCC[C@H]5C(=O)N(C)CC(=O)N(C)[C@@H](C(C)C)C(=O)O[C@@H]4C)c3nc-2c(C(=O)N[C@@H]2C(=O)N[C@H](C(C)C)C(=O)N3CCC[C@H]3C(=O)N(C)CC(=O)N(C)[C@@H](C(C)C)C(=O)O[C@@H]2C)c(N)c1=O [Dactinomycin]
quantity_name: relative IC50
test_value: 0.00307 µM
--
compound: Nc1ncnc2c1c(COc1cccc(Cl)c1)nn2C1CCOCC1
quantity_name: relative IC50
test_value: > 10 µM

[Q] Give relative IC50 only, for COC(=O)c1ccc2c(c1)NC(=O)/C2=C(\Nc1ccc(N(C)C(=O)CN2CCN(C)CC2)cc1)c1ccccc1 [Nintedanib] , using STS26T data.
[A] > 10 µM

---

system: S462; test: relative IC50 (inflection point of fitted dose-response curve, CellTiter-Glo viability, 72 h; top asymptote may be below 50% inhibition); higher = less potent
quantity_name: relative IC50

compound: Nc1ccn([C@@H]2O[C@H](CO)[C@@H](O)[C@@H]2O)c(=O)n1 [Cytarabine]
relative IC50: 163 nM
//
compound: CCN(CCO)CCCOc1ccc2c(Nc3cc(CC(=O)Nc4cccc(F)c4)[nH]n3)ncnc2c1 [AZD1152-HQPA]
relative IC50: 5.43 nM
//
compound: O=C(Nc1ccc2[nH]nc(-c3ccncc3)c2c1)[C@@H]1CCN(CC(=O)N2CCN(c3ccc(-c4ncccn4)cc3)CC2)C1
relative IC50: 137 nM

[Q] Please give measured relative IC50 of the following entry: Nc1nc2[nH]cnc2c(=S)[nH]1 [Thioguanine]
[A] 1200 nM

[Q] Provide one value: measured relative IC50 of Cc1c(CN2CCN(C(=O)[C@H](C)O)CC2)sc2c(N3CCOCC3)nc(-c3cnc(N)nc3)nc12 [GDC-0980]
[A] 617 nM

[Q] Query relative IC50 for Cn1c(=O)n(-c2ccc(C(C)(C)C#N)cc2)c2c3cc(-c4cnc5ccccc5c4)ccc3ncc21 [Dactolisib]
[A] 14.8 nM

[Q] Given N#CCNC(=O)c1ccc(-c2ccnc(Nc3ccc(N4CCOCC4)cc3)n2)cc1 [Momelotinib] , respond with its relative IC50.
[A] 2740 nM

[Q] Dear colleague, please send me the reported relative IC50 for Cn1cnc2c(F)c(Nc3ccc(Br)cc3Cl)c(C(=O)NOCCO)cc21 [Selumetinib] when you can.
[A] 736 nM

[Q] State its relative IC50 for this compound: C=CCn1c(=O)c2cnc(Nc3ccc(N4CCN(C)CC4)cc3)nc2n1-c1cccc(C(C)(C)O)n1 [MK1775]
[A] 111 nM

[Q] Using known records, supply relative IC50 for c1cc(CN2CCCNCCNCCCNCC2)ccc1CN1CCCNCCNCCCNCC1 [Plerixafor aq]
[A] > 10000 nM

---

Listed next: entries and their corresponding drug sensitivity score.
system: HSC2 (primary human Schwann cells); experiment: drug sensitivity score (DSS, CellTiter-Glo viability, 72 h) (DSS (dimensionless)); higher = more sensitive; extreme values may be limits of the assay
Response field accepts a number only; no unit should be typed.

Known results for compounds:
compound: C[C@]12C=CC(=O)C=C1CC[C@@H]1[C@@H]2C(=O)C[C@@]2(C)[C@H]1CC[C@]2(O)C(=O)CO [Prednisone] (max concentration tested 10000 nM)
drug sensitivity score: 0

compound: CCNC(=O)CCC/C=C\C[C@@H]1[C@@H](/C=C/[C@@H](O)CCc2ccccc2)[C@H](O)C[C@@H]1O [Bimatoprost] (max concentration tested 5500 nM)
drug sensitivity score: 0

Now turn to the next compound.
[Q] Dear colleague, please send me the reported drug sensitivity score for Nc1cccc2c1C(=O)N(C1CCC(=O)NC1=O)C2=O (stereo not drawn) [Pomalidomide] (max concentration tested 10000 nM) when you can.
[A] 0

---

tested on: HSC1; assay: relative IC50 (inflection point of fitted dose-response curve, CellTox-Green cytotoxicity, 72 h; top asymptote may be below 50%); higher = less potent
I would appreciate it if you labelled entries fulfilled when relative IC50 is 200 nM or higher, otherwise not fulfilled.

Recorded results for 3 molecules are shown here.
molecule: Nc1nc(F)nc2c1ncn2[C@@H]1O[C@H](CO)[C@@H](O)[C@@H]1O
cat: fulfilled

molecule: C[C@@]1(C(=O)Nc2ccc(F)nc2)CCCN1c1nc(Nc2cc(C3CC3)n[nH]2)c2cccn2n1
cat: fulfilled

molecule: CC(C)c1cc(-c2n[nH]c(=O)n2-c2ccc3c(ccn3C)c2)c(O)cc1O
cat: not fulfilled

[Q] Say whether Nc1ncn([C@@H]2O[C@H](CO)[C@@H](O)[C@H]2O)c(=O)n1 shows relative IC50 of 200 nM or more.
[A] fulfilled

[Q] Has CC(=O)[C@]1(O)Cc2c(O)c3c(c(O)c2[C@@H](O[C@H]2C[C@H](N)[C@H](O)[C@H](C)O2)C1)C(=O)c1ccccc1C3=O a recorded relative IC50 greater than or equal to 200 nM?
[A] not fulfilled

[Q] Given Nc1ccn([C@@H]2O[C@H](CO)[C@@H](O)[C@@H]2O)c(=O)n1 , state whether its relative IC50 is at least 200 nM.
[A] fulfilled

---

test system: S1507-2; assay: drug sensitivity score (DSS, CellTox-Green cytotoxicity, 72 h) (DSS (dimensionless)); higher = more cytotoxic; extreme values may be limits of the assay
Classify as follows. Reported drug sensitivity score greater than or equal to 3: Criterion met. Reported drug sensitivity score below: Criterion not met.

compound: CC[C@@]1(O)C(=O)OCc2c1cc1n(c2=O)Cc2cc3c(CN(C)C)c(O)ccc3nc2-1 [Topotecan] (max concentration tested 10000 nM)
cat: Criterion met

[Q] Does the compound Nc1nc(NC2CC2)cc(-c2cccc(Cl)c2Cl)n1 [TH588] (max concentration tested 25000 nM) have recorded drug sensitivity score that is 3 or more?
[A] Criterion met

[Q] API: above_or_equal(metric=drug sensitivity score, cutoff=3) for item C=CCNC1=C2C[C@@H](C)C[C@H](OC)[C@H](O)[C@@H](C)/C=C(\C)[C@H](OC(N)=O)[C@@H](OC)/C=C\C=C(/C)C(=O)NC(=CC1=O)C2=O [Tanespimycin] (max concentration tested 10000 nM)
[A] Criterion met

[Q] Check this compound for drug sensitivity score at or above 3: O=NN(CCCl)C(=O)NCCCl [Carmustine] (max concentration tested 10000 nM)
[A] Criterion not met

[Q] Please tell me: is the compound O=P1(N(CCCl)CCCl)NCCCO1 (stereo not drawn) [Cyclophosphamide] (max concentration tested 40000 nM) at or over 3 in terms of drug sensitivity score?
[A] Criterion not met

[Q] Quick check: does COc1cc2c(cc1O)CC[C@@H]1[C@@H]2CC[C@]2(C)[C@@H](O)CC[C@@H]12 [2-methoxyestradiol] (max concentration tested 10000 nM) have drug sensitivity score greater than or equal to 3?
[A] Criterion met

[Q] Exam item: decide whether the reported drug sensitivity score for FC(F)c1nc2ccccc2n1-c1nc(N2CCOCC2)nc(N2CCOCC2)n1 [ZSTK474] (max concentration tested 10000 nM) is at least 3.
[A] Criterion not met

[Q] Quick check, drug sensitivity score >= 3? CS(=O)(=O)CCNCc1ccc(-c2ccc3ncnc(Nc4ccc(OCc5cccc(F)c5)c(Cl)c4)c3c2)o1 [Lapatinib] (max concentration tested 1000 nM)
[A] Criterion not met

[Q] Does the reported drug sensitivity score for CCOC(=O)CCNc1cc(N2CCc3ccccc3CC2)nc(-c2ccccn2)n1 [GSK-J4] (max concentration tested 100000 nM) fall at or above the 3 mark?
[A] Criterion met

[Q] Reported drug sensitivity score reaches at least 3 for Nc1ncnc2c1nc(N)n2[C@@H]1O[C@H](CO)[C@@H](O)[C@H]1O [8-amino-adenosine] (max concentration tested 50000 nM) ?
[A] Criterion met

[Q] Does the compound N[C@@H](Cc1ccc(N(CCCl)CCCl)cc1)C(=O)O [Melphalan aq] (max concentration tested 12500 nM) have recorded drug sensitivity score that is 3 or more?
[A] Criterion not met

[Q] Determine whether this compound has drug sensitivity score no lower than 3: Nc1cc(C(F)(F)F)c(-c2cc(N3CCOCC3)nc(N3CCOCC3)n2)cn1 [Buparlisib] (max concentration tested 10000 nM)
[A] Criterion met

[Q] Given the entry COc1cc(OC2CCN(C)CC2)ccc1Nc1ncc2c(n1)n(C1CCCC1)c(=O)n2C [AZ 3146] (max concentration tested 10000 nM) , answer whether its drug sensitivity score meets or surpasses 3.
[A] Criterion not met
